- system-name: Epidermal growth factor receptor (Homo sapiens) (UniProt P00533)
- Sequence (P00533 whole entry, looked up): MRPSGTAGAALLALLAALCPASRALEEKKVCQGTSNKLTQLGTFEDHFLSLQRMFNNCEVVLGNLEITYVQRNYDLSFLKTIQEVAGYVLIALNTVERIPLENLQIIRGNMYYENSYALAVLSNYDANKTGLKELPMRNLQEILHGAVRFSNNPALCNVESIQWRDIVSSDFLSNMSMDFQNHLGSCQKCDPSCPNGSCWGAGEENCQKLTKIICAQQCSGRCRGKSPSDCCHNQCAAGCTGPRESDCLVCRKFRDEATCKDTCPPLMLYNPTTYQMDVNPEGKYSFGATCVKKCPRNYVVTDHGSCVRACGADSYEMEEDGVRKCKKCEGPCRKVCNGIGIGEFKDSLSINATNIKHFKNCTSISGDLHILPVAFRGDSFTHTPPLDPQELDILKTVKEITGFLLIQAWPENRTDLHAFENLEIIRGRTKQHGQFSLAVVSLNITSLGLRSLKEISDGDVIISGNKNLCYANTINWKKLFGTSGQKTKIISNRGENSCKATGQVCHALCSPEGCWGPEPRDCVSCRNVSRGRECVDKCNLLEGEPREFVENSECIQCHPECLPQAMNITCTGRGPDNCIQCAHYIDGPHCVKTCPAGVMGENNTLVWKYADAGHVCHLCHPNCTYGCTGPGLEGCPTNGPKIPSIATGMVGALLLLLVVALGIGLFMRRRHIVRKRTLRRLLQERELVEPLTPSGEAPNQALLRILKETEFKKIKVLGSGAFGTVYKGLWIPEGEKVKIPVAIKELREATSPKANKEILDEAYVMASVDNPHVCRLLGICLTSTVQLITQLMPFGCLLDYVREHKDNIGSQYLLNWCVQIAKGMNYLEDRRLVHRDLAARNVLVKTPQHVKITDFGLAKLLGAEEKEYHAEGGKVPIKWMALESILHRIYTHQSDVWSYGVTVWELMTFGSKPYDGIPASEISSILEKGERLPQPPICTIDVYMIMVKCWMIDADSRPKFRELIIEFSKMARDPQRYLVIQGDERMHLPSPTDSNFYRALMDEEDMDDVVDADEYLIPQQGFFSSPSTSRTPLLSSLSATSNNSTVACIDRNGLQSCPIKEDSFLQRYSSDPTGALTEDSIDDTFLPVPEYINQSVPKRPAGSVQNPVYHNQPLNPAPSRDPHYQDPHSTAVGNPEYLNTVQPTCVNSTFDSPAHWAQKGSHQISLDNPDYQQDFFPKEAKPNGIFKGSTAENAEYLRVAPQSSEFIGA
- procedure-details: EGFR binders on small-molecule microarrays, primary screen, biochemical, small-molecule microarray, 635 nm fluorescence (AID 1104);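 note: score merges 667 nm emission intensity with spot signal to noise over triplicate slides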
- conditions: EGFR binding, higher = more signal
Classify by measured composite z-score: Y if it is equal to or exceeds 0.1, N if it is smaller.

compound: CO[C@@H]1COC(=O)CC=C[C@H](C)COC(=O)[C@H](Cc2ccccc2)NC(=O)CC=C[C@H]1C
system-name: Epidermal growth factor receptor (Homo sapiens) (UniProt P00533)
assigned-label: Y
//
compound: CC(C)[Si]1(C(C)C)O[C@@H](c2ccccc2)c2cc(C3CC3)nc(-c3ccc(Oc4ccccc4)cc3)c21
system-name: Epidermal growth factor receptor (Homo sapiens) (UniProt P00533)
assigned-label: N
//
compound: O=C1O[C@@H](c2ccccc2)[C@@H](c2ccccc2)N2[C@@H](c3ccc(O)cc3)[C@]3(C(=O)Nc4ccccc43)[C@@H](C(=O)N3CCN(c4ncccn4)CC3)[C@H]12
system-name: Epidermal growth factor receptor (Homo sapiens) (UniProt P00533)
assigned-label: N
//
compound: COC(=O)c1c(CC[C@@H](CO)NC(=O)N[C@H](Cn2cc(-c3cncn3C)nn2)C(C)C)oc(C(C)=O)c1C(=O)OC
system-name: Epidermal growth factor receptor (Homo sapiens) (UniProt P00533)
assigned-label: Y
//
compound: C#CCCCON=C1C[C@@H](O)[C@@H](O)[C@@H]2[C@@H]3C(=O)N(Cc4ccc5c(c4)OCO5)C(=O)[C@@H]3CC[C@@H]12
system-name: Epidermal growth factor receptor (Homo sapiens) (UniProt P00533)
assigned-label: Y
//
compound: COc1ccc(NN2C(C(O)c3cc(OC)c(OC)c(OC)c3)C=CC3C(=O)N(C4CCCCC4)C(=O)C32)cc1 (centres undefined)
system-name: Epidermal growth factor receptor (Homo sapiens) (UniProt P00533)
assigned-label: N
//
compound: COCCOC(=O)N1C(=O)[C@@]2(c3cc(C#CCNC(N)=O)ccc31)[C@H](c1ccccc1OCCO)N1[C@H](c3ccccc3)[C@H](c3ccccc3)OC(=O)[C@H]1[C@@H]2C(=O)NC[C@H](O)c1ccccc1
system-name: Epidermal growth factor receptor (Homo sapiens) (UniProt P00533)
assigned-label: Y
//
compound: COC(=O)C[C@H]1O[C@]2(C(=O)N(Cc3ccccc3)c3ccc(I)cc32)[C@@H](C)[C@@H]1[Si](C)(C)c1ccc(OC)cc1
system-name: Epidermal growth factor receptor (Homo sapiens) (UniProt P00533)
assigned-label: N
//
compound: COCCOC(=O)N1C(=O)[C@@]2(c3ccccc31)[C@H](C(=O)N1CCc3cc(OC)c(OC)cc3C1)[C@H]1C(=O)O[C@H](c3ccccc3)[C@H](c3ccccc3)N1[C@@H]2c1ccccc1OCCO
system-name: Epidermal growth factor receptor (Homo sapiens) (UniProt P00533)
assigned-label: Y
//
compound: CC(C)[Si](OCC[C@H]1O[C@]2(C(=O)N(Cc3ccccc3)c3ccccc32)[C@@H](C)[C@@H]1[Si](C)(C)O)(C(C)C)C(C)C
system-name: Epidermal growth factor receptor (Homo sapiens) (UniProt P00533)
assigned-label: N
//
compound: C=CCC(OC(C)=O)[C@@H]1[C@@H](N(Cc2cccc3ccccc23)C(=O)c2ccc(C)cc2)c2cc(OCCCO)ccc2N1C(=O)c1ccc(-c2ccccc2)cc1 (some centres undefined)
system-name: Epidermal growth factor receptor (Homo sapiens) (UniProt P00533)
assigned-label: N
//
compound: COc1cc2c(cc1OC)CN(C(=O)[C@H]1[C@@H]3C(=O)O[C@@H](c4ccccc4)[C@@H](c4ccccc4)N3[C@@H](c3ccccc3OCCO)[C@]13C(=O)Nc1ccc(C#CC4(O)CCCCCC4)cc13)CC2
system-name: Epidermal growth factor receptor (Homo sapiens) (UniProt P00533)
assigned-label: Y
//
compound: C=C(C(=O)CC[C@H](OC(=O)c1ccccc1-c1ccccc1C(=O)O)c1ccc(CO)o1)C(C)C
system-name: Epidermal growth factor receptor (Homo sapiens) (UniProt P00533)
assigned-label: N
//
compound: O=C/C=C/c1ccccc1Cl
system-name: Epidermal growth factor receptor (Homo sapiens) (UniProt P00533)
assigned-label: N

Numbers sourced from PubChem BioAssay.
